target: T1, human CTGF (Homo sapiens, UniProt P29279); assay: SPR binding kinetics and affinity, human CTGF; settings: 25° C., 1:1 binding model
T1 construct: purchased Creative Biomart
T1 sequence (P29279 with tags, fused parts or gaps H83D): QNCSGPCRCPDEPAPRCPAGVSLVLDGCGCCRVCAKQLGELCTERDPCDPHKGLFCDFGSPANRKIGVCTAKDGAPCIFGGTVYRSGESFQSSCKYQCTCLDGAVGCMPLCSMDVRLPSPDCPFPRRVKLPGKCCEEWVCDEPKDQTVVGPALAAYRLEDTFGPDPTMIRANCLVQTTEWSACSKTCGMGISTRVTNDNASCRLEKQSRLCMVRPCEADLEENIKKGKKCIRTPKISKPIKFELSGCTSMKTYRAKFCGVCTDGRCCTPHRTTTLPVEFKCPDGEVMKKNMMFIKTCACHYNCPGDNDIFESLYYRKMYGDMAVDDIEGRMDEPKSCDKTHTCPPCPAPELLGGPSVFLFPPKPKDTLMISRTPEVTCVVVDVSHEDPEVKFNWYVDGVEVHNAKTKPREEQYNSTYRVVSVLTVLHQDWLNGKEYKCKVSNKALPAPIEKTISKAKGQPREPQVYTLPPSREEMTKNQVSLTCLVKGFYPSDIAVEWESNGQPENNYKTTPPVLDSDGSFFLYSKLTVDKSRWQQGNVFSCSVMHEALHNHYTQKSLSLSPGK
Recorded metric: human CTGF koff (s⁻¹)
Answer format: numeric, s⁻¹ implied, no suffix.

**Query** What value of measured human CTGF koff is listed for SEQ ID NO: 33: optimized CTGF-binding hNGAL lipocalin mutein (protein, lipocalin mutein) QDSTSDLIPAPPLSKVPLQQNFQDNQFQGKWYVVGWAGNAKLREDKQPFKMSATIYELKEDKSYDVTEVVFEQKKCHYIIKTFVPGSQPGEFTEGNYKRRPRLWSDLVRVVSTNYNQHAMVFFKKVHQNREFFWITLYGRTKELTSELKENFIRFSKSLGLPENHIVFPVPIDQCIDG ?
**Result** 1.71e-05

**Query** Record: SEQ ID NO: 12: optimized CTGF-binding hNGAL lipocalin mutein (protein, lipocalin mutein) QDSTSDLIPAPPLSKVPLQQNFQDNQFQGKWYVVGLAGNAILREDKYPAKMFATIYELKEDKSYDVTSVRFENKSCVYTIKTFVPGSQPGEFTTGNIKSAPGQTSTLVRVVSTNYNQHAMVFFKHVSQNREFFVITLYGRTKELTSELKENFIRFSKSLGLPENHIVFPVPIDQCIDG
**Result** 0.000133

**Query** Record: SEQ ID NO: 22: optimized CTGF-binding hNGAL lipocalin mutein (protein, lipocalin mutein) QDSTSDLIPAPPLSKVPLQQNFQDNQFQGKWYVVGIAGNAILRVDKQPAKMFATIYELKEDKSYDVTSVRFEAKSCVYTIKTFVPGSQPGEFTAGNIKSAPGQTSTLVRVVSTNYNQHAMVFFKHVSQNREIFVITLYGRTKELTSELKENFIRFSKSLGLPENHIVFPVPIDQCIDG
**Result** 8.05e-06
